Provenance of the data: paper PMC4933879

# study target: tubulin covalently linked to a biotinylated stathmin-like peptide
# experiment notes: ELISA
# condition details: chain shown with the change; buffer incubation after binding; 10 nM biotinylated peptide-coupled tubulin for coating; parent: est. 0.32; read off a plot
measured endpoint: response
Returns: string containing the number followed by the unit.

q: Look up and state reported response for DARPin D1 V131A (protein) MRGSHHHHHHGSDLGKKLLEAARAGQDDEVRILMANGADVNATDASGLTPLHLAATYGHLEIVEVLLKHGADVNAIDIMGSTPLHLAALIGHLEIVEVLLKHGADVNAVDTWGDTPLHLAAIMGHLEIVEALLKHGADVNAQDKFGKTAFDISIDNGNEDLAEILQKLN
a: 0.24 AU

q: Give response for the following binder: DARPin D1 F150Y (protein) MRGSHHHHHHGSDLGKKLLEAARAGQDDEVRILMANGADVNATDASGLTPLHLAATYGHLEIVEVLLKHGADVNAIDIMGSTPLHLAALIGHLEIVEVLLKHGADVNAVDTWGDTPLHLAAIMGHLEIVEVLLKHGADVNAQDKFGKTAYDISIDNGNEDLAEILQKLN
a: 0.26 AU

q: State its response for this binder: DARPin D1 I32V (protein) MRGSHHHHHHGSDLGKKLLEAARAGQDDEVRVLMANGADVNATDASGLTPLHLAATYGHLEIVEVLLKHGADVNAIDIMGSTPLHLAALIGHLEIVEVLLKHGADVNAVDTWGDTPLHLAAIMGHLEIVEVLLKHGADVNAQDKFGKTAFDISIDNGNEDLAEILQKLN
a: 0.31 AU

q: Find the measured response of DARPin D1 E127K; V131A (protein) MRGSHHHHHHGSDLGKKLLEAARAGQDDEVRILMANGADVNATDASGLTPLHLAATYGHLEIVEVLLKHGADVNAIDIMGSTPLHLAALIGHLEIVEVLLKHGADVNAVDTWGDTPLHLAAIMGHLKIVEALLKHGADVNAQDKFGKTAFDISIDNGNEDLAEILQKLN and report it.
a: 0.31 AU

q: Give a short answer stating reported response for DARPin D1 E127K (protein) MRGSHHHHHHGSDLGKKLLEAARAGQDDEVRILMANGADVNATDASGLTPLHLAATYGHLEIVEVLLKHGADVNAIDIMGSTPLHLAALIGHLEIVEVLLKHGADVNAVDTWGDTPLHLAAIMGHLKIVEVLLKHGADVNAQDKFGKTAFDISIDNGNEDLAEILQKLN .
a: 0.42 AU

q: Look up and report measured response for this entry: DARPin D1 F150Y; I152T; N158S (protein) MRGSHHHHHHGSDLGKKLLEAARAGQDDEVRILMANGADVNATDASGLTPLHLAATYGHLEIVEVLLKHGADVNAIDIMGSTPLHLAALIGHLEIVEVLLKHGADVNAVDTWGDTPLHLAAIMGHLEIVEVLLKHGADVNAQDKFGKTAYDTSIDNGSEDLAEILQKLN
a: 0.75 AU
